From: BigSolDB 2.1

Details: in n-propanol, 293.15 K
reported-metric: solubility (mole fraction)
The answer should be a number; do not append a unit.

GET /value?item= CCCSc1nc(N[C@@H]2C[C@H]2c2ccc(F)c(F)c2)c2nnn([C@@H]3C[C@H](OCCO)[C@@H](O)[C@H]3O)c2n1 &field=solubility (mole fraction) returns 0.00683

---

Details: in n-propanol, 313.15 K
reported-metric: solubility (mole fraction)
The answer should be a number; do not append a unit.

GET /value?item= CCCSc1nc(N[C@@H]2C[C@H]2c2ccc(F)c(F)c2)c2nnn([C@@H]3C[C@H](OCCO)[C@@H](O)[C@H]3O)c2n1 &field=solubility (mole fraction) returns 0.0222
